pIC50 values, listed per item
subject-of-test: Human MMP9 (Homo sapiens, UniProt P14780)
Construct: purchased Calbiochem 444231
Sequence (P14780 107-707 limits assumed): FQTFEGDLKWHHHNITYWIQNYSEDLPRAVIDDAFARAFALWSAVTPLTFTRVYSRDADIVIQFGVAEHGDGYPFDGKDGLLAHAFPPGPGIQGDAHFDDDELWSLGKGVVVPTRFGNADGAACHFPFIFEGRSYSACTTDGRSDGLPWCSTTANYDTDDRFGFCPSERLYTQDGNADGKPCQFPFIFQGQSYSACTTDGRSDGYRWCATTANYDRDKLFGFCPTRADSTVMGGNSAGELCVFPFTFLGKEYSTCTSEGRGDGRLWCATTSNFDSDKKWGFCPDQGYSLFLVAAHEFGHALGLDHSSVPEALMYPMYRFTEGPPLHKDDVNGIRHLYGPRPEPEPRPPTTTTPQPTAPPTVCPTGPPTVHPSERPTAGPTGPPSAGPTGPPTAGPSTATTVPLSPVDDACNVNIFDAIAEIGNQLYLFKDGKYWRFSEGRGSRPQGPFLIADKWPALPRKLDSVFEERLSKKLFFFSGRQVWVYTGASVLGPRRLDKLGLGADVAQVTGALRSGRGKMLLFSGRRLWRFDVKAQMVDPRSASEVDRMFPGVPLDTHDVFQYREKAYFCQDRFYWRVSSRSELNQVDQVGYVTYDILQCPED
assay-method-text: MMP9 inhibition experiment
Type: biochemical
measurement-context: read-out: IC50 value MMP-9
// pIC50 here means minus log10 of the molar concentration (mol/L)

compound	pIC50
Cc1cc(COc2ccc(S(=O)(=O)CC(C=C3CCN(Cc4ccccc4)CC3)N(O)C=O)cc2)c2ccccc2n1 (centres unmarked) [Example I-45]	4.40
C=C1CCC(C(CS(=O)(=O)c2ccc(OCc3cc(C)cc(OC)c3)cc2)N(O)C=O)CC1 (centres unmarked) [Example I-7]	4.52
Cc1cc(COc2ccc(S(=O)(=O)CC(CC3CCC(=O)CC3)N(O)C=O)cc2)cc(C)n1 (centres unmarked) [Example I-113]	4.15
Cc1ccc(CCC(CS(=O)(=O)c2ccc(OCc3cc(C)nc4ccccc34)cc2)N(O)C=O)cc1 (centres unmarked) [Example I-36]	4.37
C=C1CCC(C(CS(=O)(=O)c2ccc(OCc3cc(C)nc(C)c3)cc2)N(O)C=O)CC1 (centres unmarked) [Example I-4]	4.40

Cc1cc(COc2ccc(S(=O)(=O)CC(C=C3CCC(=NO)CC3)N(O)C=O)cc2)c2ccccc2n1 (centres unmarked) [Example I-6] has a reported pIC50 of 4.35

Cc1cc(Cl)cc(COc2ccc(S(=O)(=O)CC(C=C3CCC4(CC3)OCCO4)N(O)C=O)cc2)c1 (centres unmarked) [Example I-103] has a reported pIC50 of 4.42

Cc1cccc(CCC(CS(=O)(=O)c2ccc(OCc3cc(C)nc4ccccc34)cc2)N(O)C=O)c1 (centres unmarked) [Example I-39] has a reported pIC50 of 4.44

Cc1cc(COc2ccc(S(=O)(=O)CC(c3ccccc3C)N(O)C=O)cc2)c2cc(F)ccc2n1 (centres unmarked) [Example I-79] has a reported pIC50 of 4.15

Cc1cc(COc2ccc(S(=O)(=O)CC(CC3CCN(C(=O)c4ccccc4)CC3)N(O)C=O)cc2)c2ccccc2n1 (centres unmarked) [Example I-50] has a reported pIC50 of 4.51

CCC(CC)C(=O)N1CCC(C(CS(=O)(=O)c2ccc(OCc3cc(C)nc4ccccc34)cc2)N(O)C=O)CC1 (centres unmarked) [Example I-132] has a reported pIC50 of 4.40

Cc1cc(COc2ccc(S(=O)(=O)CC(CC3CCC(=NO)CC3)N(O)C=O)cc2)cc(C)n1 (centres unmarked) [Example I-112] has a reported pIC50 of 4.40

Cc1cc(Cl)cc(COc2ccc(S(=O)(=O)CC(CC3CCC4(CC3)OCCO4)N(O)C=O)cc2)c1 (centres unmarked) [Example I-99] has a reported pIC50 of 4.70

Cc1cc(COc2ccc(S(=O)(=O)CC(C3CCCN(C(=O)OC(C)(C)C)C3)N(O)C=O)cc2)c2ccccc2n1 (centres unmarked) [Example I-72] has a reported pIC50 of 4.19

Cc1cc(COc2ccc(S(=O)(=O)CC(C=C3CCN(C(=O)OC(C)(C)C)CC3)N(O)C=O)cc2)c2ccccc2n1 (centres unmarked) [Example I-18] has a reported pIC50 of 5.00

---

subject-of-test: Human MMP9 (Homo sapiens, UniProt P14780)
Construct: purchased Calbiochem 444231
assay-method-text: MMP9 inhibition experiment
Type: biochemical
measurement-context: read-out: IC50 value MMP-9
test-readout: IC50

See these solved cases before continuing.
compound	subject-of-test	IC50
CC(=O)N1CCCC(C(CS(=O)(=O)c2ccc(OCc3cc(C)nc4ccccc34)cc2)N(O)C=O)C1 (stereo not shown)	Human MMP9 (Homo sapiens, UniProt P14780)	> 100 µM
Cc1cc(COc2ccc(S(=O)(=O)CC(C=C3CCOCC3)N(O)C=O)cc2)cc(C)n1 (stereo not shown)	Human MMP9 (Homo sapiens, UniProt P14780)	> 100 µM
Cc1ccc(C(C)(CS(=O)(=O)c2ccc(OCc3cc(C)nc4ccccc34)cc2)N(O)C=O)cc1 (stereo not shown)	Human MMP9 (Homo sapiens, UniProt P14780)	60 µM
Cc1cc(COc2ccc(S(=O)(=O)CC(CCc3cccnc3)N(O)C=O)cc2)c2ccccc2n1 (stereo not shown)	Human MMP9 (Homo sapiens, UniProt P14780)	55 µM
Cc1cc(COc2ccc(S(=O)(=O)CC(C=C3CCOCC3)N(O)C=O)cc2)c2ccccc2n1 (single isomer, unassigned)	Human MMP9 (Homo sapiens, UniProt P14780)	> 100 µM
Cc1cc(COc2ccc(S(=O)(=O)CC(C(Cl)=C3CCOCC3)N(O)C=O)cc2)c2ccccc2n1 (stereo not shown)	Human MMP9 (Homo sapiens, UniProt P14780)	> 100 µM

Now take the following compound into account.
Cc1cc(COc2ccc(S(=O)(=O)CC(C3CCC(=NOC=O)CC3)N(O)C=O)cc2)c2ccccc2n1 (stereo not shown) has a reported IC50 of 28 µM

---

subject-of-test: Human MMP13 (Homo sapiens, UniProt P45452)
Construct: purchased Chemicon CC068
assay-method-text: MMP13 inhibition experiment
Assay type: biochemical
measurement-context: IC50 value MMP-13, concentration required for 50% inhibition of enzyme activity
test-readout: IC50
Answer format reminder: number followed by unit.

CC[C@H](C)[C@H](NC(=O)[C@H](CC(C)C)[C@H](C(C)C)N(O)C=O)C(=O)Nc1ccccn1 [compound 3, reference compound] has a reported IC50 of 10 nM

---

subject-of-test: Human MMP9 (Homo sapiens)
Construct: purchased Calbiochem 444231
assay-method-text: MMP9 inhibition experiment
Assay type: biochemical
measurement-context: concentration required for 50% inhibition of enzyme activity; read-out: IC50 value MMP-9
pIC50 values, listed per item
// pIC50 here means minus log10 of the molar concentration (mol/L)

molecule	data-value
Cc1cc(COc2ccc(S(=O)(=O)N3CCSC(C)(C)[C@@H]3C(=O)NO)cc2)cc(C)n1 [compound 1, reference compound]	5.00
Cc1cc(COc2ccc(S(=O)(=O)CC(CC3CCC4(CC3)OCCO4)N(O)C=O)cc2)c2ccccc2n1 (stereo not drawn)	4.92
Cc1cc(COc2ccc(S(=O)(=O)CC(C3CCC(=O)CC3)N(O)C=O)cc2)c2ccccc2n1 (stereo not drawn)	4.55
C[C@@H]1O[C@@H](CO)CN(S(=O)(=O)c2ccc(OCc3ccc(F)cc3)cc2)[C@H]1C(=O)NO [compound 2, reference compound]	7.70
Cc1cc(COc2ccc(S(=O)(=O)CC(C=C3CCC(=O)CC3)N(O)C=O)cc2)c2ccccc2n1 (stereo not drawn)	4.30

// molecule Cc1cc(COc2ccc(S(=O)(=O)CC(C=C3CCOCC3)N(O)C=O)cc2)c2ccccc2n1 (stereo not drawn) [Example I-9] , assay Human MMP9 (Homo sapiens), pIC50 value: 4.28

// molecule Cc1cc(COc2ccc(S(=O)(=O)CC(C3CCC4(CC3)OCCO4)N(O)C=O)cc2)c2ccccc2n1 (stereo not drawn) , assay Human MMP9 (Homo sapiens), pIC50 value: 4.40

// molecule Cc1cc(COc2ccc(S(=O)(=O)CC(C=C3CCSCC3)N(O)C=O)cc2)c2ccccc2n1 (stereo not drawn) , assay Human MMP9 (Homo sapiens), pIC50 value: 4.51

---

subject-of-test: TACE (Homo sapiens, UniProt P78536)
Construct: made in house; host or cells: mammalian cells or insect cells
Sequence (P78536 215-824): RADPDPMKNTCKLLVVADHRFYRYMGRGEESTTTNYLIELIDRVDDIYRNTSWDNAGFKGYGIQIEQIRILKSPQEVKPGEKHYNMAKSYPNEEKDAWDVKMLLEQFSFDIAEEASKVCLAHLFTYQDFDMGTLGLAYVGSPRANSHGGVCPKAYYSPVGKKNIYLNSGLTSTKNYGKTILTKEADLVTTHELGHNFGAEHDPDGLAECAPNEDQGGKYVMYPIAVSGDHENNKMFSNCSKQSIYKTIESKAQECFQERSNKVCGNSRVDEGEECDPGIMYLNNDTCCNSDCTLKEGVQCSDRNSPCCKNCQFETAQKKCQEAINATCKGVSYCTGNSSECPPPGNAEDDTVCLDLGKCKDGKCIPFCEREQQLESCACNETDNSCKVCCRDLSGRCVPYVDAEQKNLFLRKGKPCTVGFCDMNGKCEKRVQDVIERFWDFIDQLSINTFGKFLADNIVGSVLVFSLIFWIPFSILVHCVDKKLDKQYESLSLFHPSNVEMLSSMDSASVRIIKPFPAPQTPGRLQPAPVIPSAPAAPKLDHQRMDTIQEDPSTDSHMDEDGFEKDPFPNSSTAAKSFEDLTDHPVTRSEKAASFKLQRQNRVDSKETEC
assay-method-text: TACE inhibition experiment (in vitro)
Type: biochemical
pIC50 values, listed per item
// pIC50 here means minus log10 of the molar concentration (mol/L)

compound	data-value
Cc1cc(COc2ccc(S(=O)(=O)CC(C=C3CCSCC3)N(O)C(N)=O)cc2)c2ccccc2n1 (stereo not drawn)	6.20

Cc1cc(COc2ccc(S(=O)(=O)CC(C3CCCN(CC(C)C)C3)N(O)C=O)cc2)c2ccccc2n1 (stereo not drawn) has a reported pIC50 of 7.51

Cc1cc(COc2ccc(S(=O)(=O)CC(CC3CCOCC3)N(O)C=O)cc2)c2ccccc2n1 (stereo not drawn) has a reported pIC50 of 8.12

CC[C@H](C)[C@H](NC(=O)[C@H](CC(C)C)[C@H](C(C)C)N(O)C=O)C(=O)Nc1ccccn1 [compound 3, reference compound] has a reported pIC50 of 7.46

Cc1cc(COc2ccc(S(=O)(=O)CC(C=C3CCN(C(=O)OC(C)(C)C)CC3C)N(O)C=O)cc2)c2ccccc2n1 (stereo not drawn) has a reported pIC50 of 8.48

Cc1cc(COc2ccc(S(=O)(=O)CC(CN3CCN(CC(C)C)CC3)N(O)C=O)cc2)c2ccccc2n1 (stereo not drawn) has a reported pIC50 of 7.66

Cc1ccc2nc(C)cc(COc3ccc(S(=O)(=O)CC(C=C4CCC(=NO)CC4)N(O)C=O)cc3)c2c1 (stereo not drawn) has a reported pIC50 of 8.39

CCN1CCC(=CC(CS(=O)(=O)c2ccc(OCc3cc(C)nc4ccccc34)cc2)N(O)C=O)CC1 (stereo not drawn) has a reported pIC50 of 7.92

Cc1ccc2nc(C)cc(COc3ccc(S(=O)(=O)CC(C=C4CCOCC4)N(O)C=O)cc3)c2c1 (stereo not drawn) has a reported pIC50 of 8.30

Cc1cc(COc2ccc(S(=O)(=O)CC(C=C3CCOCC3)N(O)C=O)cc2)cc(C)n1 (stereo not drawn) has a reported pIC50 of 6.85

CC(=O)N1CCC(=CC(CS(=O)(=O)c2ccc(OCc3cc(C)nc4ccccc34)cc2)N(O)C=O)CC1 (stereo not drawn) has a reported pIC50 of 8.51

COc1cc(C)cc(COc2ccc(S(=O)(=O)CC(C3CCC4(CC3)OCCO4)N(O)C=O)cc2)c1 (stereo not drawn) has a reported pIC50 of 7.10

Cc1ccc2nc(C)cc(COc3ccc(S(=O)(=O)CC([C@@H]4CSC(=O)N4C)N(O)C=O)cc3)c2c1 (stereo partly drawn) has a reported pIC50 of 7.89

COc1ccc(CCC(CS(=O)(=O)c2ccc(OCc3cc(C)nc4ccccc34)cc2)N(O)C=O)c(C)c1C (stereo not drawn) has a reported pIC50 of 6.68

Cc1cc(COc2ccc(S(=O)(=O)CC(CCC3=CCCC(OC=O)C3)N(O)C=O)cc2)c2ccccc2n1 (stereo not drawn) has a reported pIC50 of 7.92
